- experimental.system: T1, human CLDN18.2 (human)
- T1 construct: the HEK293 line was made with a GenScript plasmid; also called hCLDN18.2
- protocol.details: FACS on NUGC4_D8 cells
With a cut-off of 60 nM, any EC50 strictly below it is called Criterion met; any EC50 meeting it or above is called Criterion not met.

binder	category.label
PR007243 (antibody, human IgG1, V domains shown, HCDR2 PTM-removal mutant of PR004533; HCAb, human IgG1 Fc; also called 4533_M3D9) VH: EVQLVESGGGLVQPGGSLRLSCAASGFTFSSYWMHWVRQVPGKGLVWVSRISSAGSRTIYADSVKGRFTISRDNAKNTLYLQMNSLRAEDTAVYYCARGEDHDILTGYPIRGQGTTVTVSS	Criterion not met
PR007246 (antibody, human IgG1, V domains shown, HCDR2 PTM-removal mutant of PR004533; HCAb, human IgG1 Fc; also called 4533_M3F10) VH: EVQLVESGGGLVQPGGSLRLSCAASGFTFSSYWMHWVRQVPGKGLVWVSRISSTGSRTIYADSVKGRFTISRDNAKNTLYLQMNSLRAEDTAVYYCARGEDHDILTGYPIRGQGTTVTVSS	Criterion met
PR007242 (antibody, human IgG1, V domains shown, HCDR2 PTM-removal mutant of PR004533; HCAb, human IgG1 Fc; also called 4533_M10E1) VH: EVQLVESGGGLVQPGGSLRLSCAASGFTFSSYWMHWVRQVPGKGLVWVSRINFDSSRTIYADSVKGRFTISRDNAKNTLYLQMNSLRAEDTAVYYCARGEDHDILTGYPIRGQGTTVTVSS	Criterion not met
PR007245 (antibody, human IgG1, V domains shown, HCDR2 PTM-removal mutant of PR004533; HCAb, human IgG1 Fc; also called 4533_M6E6) VH: EVQLVESGGGLVQPGGSLRLSCAASGFTFSSYWMHWVRQVPGKGLVWVSRISSDASRTIYADSVKGRFTISRDNAKNTLYLQMNSLRAEDTAVYYCARGEDHDILTGYPIRGQGTTVTVSS	Criterion not met
PR000400 (antibody, human IgG1, kappa, V domains shown, also called IMAB362 analogue) VH: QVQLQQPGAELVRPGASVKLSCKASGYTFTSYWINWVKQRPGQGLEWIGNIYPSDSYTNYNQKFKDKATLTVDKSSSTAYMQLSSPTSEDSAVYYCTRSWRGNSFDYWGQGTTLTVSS VL: DIVMTQSPSSLTVTAGEKVTMSCKSSQSLLNSGNQKNYLTWYQQKPGQPPKLLIYWASTRESGVPDRFTGSGSGTDFTLTISSVQAEDLAVYYCQNDYSYPFTFGSGTKLEIKR	Criterion met
PR007244 (antibody, human IgG1, V domains shown, HCDR2 PTM-removal mutant of PR004533; HCAb, human IgG1 Fc; also called 4533_M4H6) VH: EVQLVESGGGLVQPGGSLRLSCAASGFTFSSYWMHWVRQVPGKGLVWVSRIDSRGSRTIYADSVKGRFTISRDNAKNTLYLQMNSLRAEDTAVYYCARGEDHDILTGYPIRGQGTTVTVSS	Criterion met
PR007248 (antibody, human IgG1, V domains shown, HCDR2 PTM-removal mutant of PR004533; HCAb, human IgG1 Fc; also called 4533_M10E7) VH: EVQLVESGGGLVQPGGSLRLSCAASGFTFSSYWMHWVRQVPGKGLVWVSRINHDSSRTIYADSVKGRFTISRDNAKNTLYLQMNSLRAEDTAVYYCARGEDHDILTGYPIRGQGTTVTVSS	Criterion not met
